biological target: CYP2D6 (Homo sapiens, UniProt P10635); test: CYP inhibition assay, CYP2D6; format: in vitro ADME; details: 4 μM
Sequence (P10635 whole entry): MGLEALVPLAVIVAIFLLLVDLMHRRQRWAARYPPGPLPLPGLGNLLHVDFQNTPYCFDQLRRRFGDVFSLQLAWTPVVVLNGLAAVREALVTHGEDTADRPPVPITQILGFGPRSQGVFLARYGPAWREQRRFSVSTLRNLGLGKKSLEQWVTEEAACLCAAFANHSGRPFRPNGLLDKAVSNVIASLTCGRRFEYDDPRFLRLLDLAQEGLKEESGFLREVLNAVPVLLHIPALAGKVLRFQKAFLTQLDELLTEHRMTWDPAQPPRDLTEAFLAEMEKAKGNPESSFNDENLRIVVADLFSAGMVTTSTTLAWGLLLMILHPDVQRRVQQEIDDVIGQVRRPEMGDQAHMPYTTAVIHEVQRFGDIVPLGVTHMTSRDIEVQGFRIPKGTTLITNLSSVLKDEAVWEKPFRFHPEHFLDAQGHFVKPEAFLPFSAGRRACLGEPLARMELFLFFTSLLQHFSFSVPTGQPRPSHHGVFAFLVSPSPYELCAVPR
assay-endpoint: inhibition at 4 µM (%)

[[record]]
molecule = "N[C@@]1(c2ccccc2Cl)CCC[C@@H](O)C1=O [2R,6R-hydroxynorketamine]"
target = "CYP2D6 (Homo sapiens, UniProt P10635)"
reported_measurement = 11.5


---

Biological target: UniProt:P33261
Test: CYP inhibition assay, CYP2C19
Type: in vitro ADME
Conditions: human; 40 μM
From the text: Cytochrome P450s (CYPs) are a family of enzymes that play a primary role in the metabolism of a wide variety of drugs. 2R,6R-hydroxynorketamine was investigated for its potential to inhibit the action of 7 key CYP enzymes using an inhibition assay measuring reduction in the formation of metabolites compared to control.
assay-endpoint: inhibition at 40 µM

[[record]]
molecule = "N[C@@]1(c2ccccc2Cl)CCC[C@@H](O)C1=O [2R,6R-hydroxynorketamine]"
reported_measurement = "8.25%"


---

molecular target: CYP3A4 (Homo sapiens, UniProt P08684); assay: CYP inhibition assay, CYP3A4 (substrates midazolam and testosterone); assay type: in vitro ADME; details: human, probe midazolam; Substrate = midazolam, 100 μM
Sequence (P08684 whole entry): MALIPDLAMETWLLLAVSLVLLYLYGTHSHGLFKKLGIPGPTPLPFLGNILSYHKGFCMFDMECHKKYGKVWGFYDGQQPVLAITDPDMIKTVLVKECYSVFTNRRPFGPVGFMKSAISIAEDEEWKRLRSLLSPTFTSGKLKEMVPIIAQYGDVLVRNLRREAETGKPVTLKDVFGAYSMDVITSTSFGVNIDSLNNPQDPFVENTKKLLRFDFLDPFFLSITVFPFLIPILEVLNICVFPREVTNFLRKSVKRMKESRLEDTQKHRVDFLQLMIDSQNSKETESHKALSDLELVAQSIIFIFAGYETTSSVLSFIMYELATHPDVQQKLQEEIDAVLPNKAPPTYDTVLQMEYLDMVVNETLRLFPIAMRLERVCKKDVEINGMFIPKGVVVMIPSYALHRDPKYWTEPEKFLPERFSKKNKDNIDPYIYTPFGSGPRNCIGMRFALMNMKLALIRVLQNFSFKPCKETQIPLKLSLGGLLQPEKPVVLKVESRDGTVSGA
assay-endpoint: inhibition at 100 µM (%)

[[record]]
compound = "N[C@@]1(c2ccccc2Cl)CCC[C@@H](O)C1=O [2R,6R-hydroxynorketamine]"
assay_endpoint = "inhibition at 100 µM"
measure_unit = "%"
reported_measurement = 57.5


---

Molecular target: CYP1A2 (Homo sapiens)
Test: CYP inhibition assay, CYP1A2
Type: in vitro ADME
Conditions: 100 μM
Source text: Cytochrome P450s (CYPs) are a family of enzymes that play a primary role in the metabolism of a wide variety of drugs. 2R,6R-hydroxynorketamine was investigated for its potential to inhibit the action of 7 key CYP enzymes using an inhibition assay measuring reduction in the formation of metabolites compared to control.
assay-endpoint: inhibition at 100 µM (%)

[[record]]
compound = "N[C@@]1(c2ccccc2Cl)CCC[C@@H](O)C1=O [2R,6R-hydroxynorketamine]"
reported_measurement = 48.6


---

assay: in vitro; conditions: human, Caco-2, Direction = B2A Papp Replicate 1, Caco-2, B2A, replicate 1
assay-endpoint: Papp B→A (×10⁻⁶ cm/s)

[[record]]
molecule = "N[C@@]1(c2ccccc2Cl)CCC[C@@H](O)C1=O [2R,6R-hydroxynorketamine]"
assay_endpoint = "Papp B→A"
reported_measurement = 52.8


---

biological target: CYP2D6 (Homo sapiens, UniProt P10635); experiment: CYP inhibition assay, CYP2D6; type: in vitro ADME; conditions: 0.4 μM
assay-endpoint: inhibition at 0.4 µM (%)

[[record]]
molecule = "N[C@@]1(c2ccccc2Cl)CCC[C@@H](O)C1=O [2R,6R-hydroxynorketamine]"
target = "CYP2D6 (Homo sapiens, UniProt P10635)"
measure_unit = "%"
reported_measurement = 3.16


---

target: UniProtKB P08684; test: CYP inhibition assay, CYP3A4 (substrates midazolam and testosterone); format: in vitro ADME; settings: human, probe testosterone; Substrate = testosterone, 100 μM
assay-endpoint: inhibition at 100 µM (%)

[[record]]
molecule = "N[C@@]1(c2ccccc2Cl)CCC[C@@H](O)C1=O [2R,6R-hydroxynorketamine]"
measure_unit = "%"
reported_measurement = 53.4


---

Target: CYP2D6 (Homo sapiens, UniProt P10635)
Assay: CYP inhibition assay, CYP2D6
Format: in vitro ADME
Details: 40 μM
Text: Cytochrome P450s (CYPs) are a family of enzymes that play a primary role in the metabolism of a wide variety of drugs. 2R,6R-hydroxynorketamine was investigated for its potential to inhibit the action of 7 key CYP enzymes using an inhibition assay measuring reduction in the formation of metabolites compared to control.
assay-endpoint: inhibition at 40 µM (%)

[[record]]
compound = "N[C@@]1(c2ccccc2Cl)CCC[C@@H](O)C1=O [2R,6R-hydroxynorketamine]"
reported_measurement = 11.2


---

target: CYP2C9 (Homo sapiens); test: CYP inhibition assay, CYP2C9; assay type: in vitro ADME; conditions: human; 4 μM
Sequence (P11712 whole entry): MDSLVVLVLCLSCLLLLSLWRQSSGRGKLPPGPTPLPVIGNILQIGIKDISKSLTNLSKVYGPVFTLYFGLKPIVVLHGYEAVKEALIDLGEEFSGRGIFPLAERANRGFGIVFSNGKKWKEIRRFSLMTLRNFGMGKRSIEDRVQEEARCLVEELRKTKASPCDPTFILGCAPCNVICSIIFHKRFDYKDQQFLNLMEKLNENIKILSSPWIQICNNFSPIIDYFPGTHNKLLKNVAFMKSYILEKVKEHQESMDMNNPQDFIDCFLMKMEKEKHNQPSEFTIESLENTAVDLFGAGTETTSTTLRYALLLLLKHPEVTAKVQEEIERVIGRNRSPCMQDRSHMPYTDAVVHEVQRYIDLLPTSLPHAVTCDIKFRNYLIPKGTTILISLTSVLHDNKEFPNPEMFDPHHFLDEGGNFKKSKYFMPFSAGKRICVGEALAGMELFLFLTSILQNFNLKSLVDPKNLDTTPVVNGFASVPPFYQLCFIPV
assay-endpoint: inhibition at 4 µM

[[record]]
compound = "N[C@@]1(c2ccccc2Cl)CCC[C@@H](O)C1=O [2R,6R-hydroxynorketamine]"
reported_measurement = "5.8%"


---

assay: in vitro hepatocyte stability assay, rat; assay type: in vitro ADME; conditions: cryopreserved hepatocytes
assay-endpoint: hepatocyte CLint (µL/min/1e6 cells)

[[record]]
molecule = "N[C@@]1(c2ccccc2Cl)CCC[C@@H](O)C1=O [2R,6R-hydroxynorketamine]"
reported_measurement = 55.2


---

molecular target: CYP3A4 (Homo sapiens, UniProt P08684); assay: CYP inhibition assay, CYP3A4 (substrates midazolam and testosterone); type: in vitro ADME; conditions: human, probe testosterone; Substrate = testosterone, 0.4 μM
assay-endpoint: inhibition at 0.4 µM (%)

[[record]]
compound = "N[C@@]1(c2ccccc2Cl)CCC[C@@H](O)C1=O [2R,6R-hydroxynorketamine]"
measure_unit = "%"
reported_measurement = 1.62


---

target: CYP2B6 (Homo sapiens, UniProt P20813); test: CYP inhibition assay, CYP2B6; format: in vitro ADME; conditions: human; 100 μM
Sequence (P20813 whole entry): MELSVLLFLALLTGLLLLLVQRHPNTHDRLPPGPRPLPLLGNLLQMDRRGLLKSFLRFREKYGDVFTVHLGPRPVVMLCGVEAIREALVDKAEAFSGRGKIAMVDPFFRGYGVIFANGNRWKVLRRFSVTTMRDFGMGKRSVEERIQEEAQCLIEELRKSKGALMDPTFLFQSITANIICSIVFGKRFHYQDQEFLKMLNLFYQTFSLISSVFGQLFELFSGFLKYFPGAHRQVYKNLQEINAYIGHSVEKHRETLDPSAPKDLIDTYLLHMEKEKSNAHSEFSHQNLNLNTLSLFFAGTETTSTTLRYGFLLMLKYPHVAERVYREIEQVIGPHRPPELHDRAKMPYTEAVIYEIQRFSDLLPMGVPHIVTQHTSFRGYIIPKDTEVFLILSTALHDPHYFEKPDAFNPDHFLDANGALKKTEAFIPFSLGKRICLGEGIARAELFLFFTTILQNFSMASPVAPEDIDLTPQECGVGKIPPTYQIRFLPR
assay-endpoint: inhibition at 100 µM (%)

[[record]]
molecule = "N[C@@]1(c2ccccc2Cl)CCC[C@@H](O)C1=O [2R,6R-hydroxynorketamine]"
assay_endpoint = "inhibition at 100 µM"
reported_measurement = 16.7


---

target: CYP3A4 (Homo sapiens); experiment: CYP inhibition assay, CYP3A4 (substrates midazolam and testosterone); format: in vitro ADME; conditions: human, probe testosterone; Substrate = testosterone, 10 μM
assay-endpoint: inhibition at 10 µM

[[record]]
compound = "N[C@@]1(c2ccccc2Cl)CCC[C@@H](O)C1=O [2R,6R-hydroxynorketamine]"
target = "CYP3A4 (Homo sapiens)"
reported_measurement = "12.4%"


---

biological target: CYP2C19 (Homo sapiens); experiment: CYP inhibition assay, CYP2C19; type: in vitro ADME; settings: human; 1 μM
Sequence (P33261 whole entry): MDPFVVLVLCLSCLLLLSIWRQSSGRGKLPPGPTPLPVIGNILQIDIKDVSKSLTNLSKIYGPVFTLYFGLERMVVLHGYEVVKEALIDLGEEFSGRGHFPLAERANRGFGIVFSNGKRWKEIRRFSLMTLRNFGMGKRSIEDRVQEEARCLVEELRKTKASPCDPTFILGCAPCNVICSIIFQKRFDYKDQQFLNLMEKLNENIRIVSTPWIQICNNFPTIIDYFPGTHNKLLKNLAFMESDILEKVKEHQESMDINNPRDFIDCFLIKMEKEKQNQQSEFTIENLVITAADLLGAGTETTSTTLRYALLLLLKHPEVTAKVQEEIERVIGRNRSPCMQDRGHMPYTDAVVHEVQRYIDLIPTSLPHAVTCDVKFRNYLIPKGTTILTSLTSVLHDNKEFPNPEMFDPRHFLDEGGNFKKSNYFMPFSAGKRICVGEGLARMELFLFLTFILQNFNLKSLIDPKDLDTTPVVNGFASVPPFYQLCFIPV
assay-endpoint: inhibition at 1 µM (%)

[[record]]
compound = "N[C@@]1(c2ccccc2Cl)CCC[C@@H](O)C1=O [2R,6R-hydroxynorketamine]"
reported_measurement = -1.66


---

biological target: UGT2B7 (Homo sapiens)
Sequence (P16662 24-529): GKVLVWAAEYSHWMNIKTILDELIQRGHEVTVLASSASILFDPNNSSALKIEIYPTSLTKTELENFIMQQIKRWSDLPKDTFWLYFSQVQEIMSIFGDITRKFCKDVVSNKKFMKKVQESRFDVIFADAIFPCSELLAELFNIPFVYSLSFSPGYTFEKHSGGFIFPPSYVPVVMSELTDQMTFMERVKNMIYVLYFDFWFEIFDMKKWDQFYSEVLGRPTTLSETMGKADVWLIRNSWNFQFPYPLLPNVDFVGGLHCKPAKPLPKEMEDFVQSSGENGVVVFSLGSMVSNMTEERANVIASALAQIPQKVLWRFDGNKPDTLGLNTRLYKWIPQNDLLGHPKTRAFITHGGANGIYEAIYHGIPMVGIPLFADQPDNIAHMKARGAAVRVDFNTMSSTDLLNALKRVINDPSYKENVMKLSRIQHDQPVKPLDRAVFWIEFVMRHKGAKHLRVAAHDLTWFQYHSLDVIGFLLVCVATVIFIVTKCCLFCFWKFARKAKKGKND
Structures can show the parent of a compound that is named as a salt.
assay-endpoint: IC50

[[record]]
molecule = "N[C@@]1(c2ccccc2Cl)CCC[C@@H](O)C1=O [2R-6R-Hydroxynorketamine Hydrochloride, 2R,6R-hydroxynorketamine hydrochloride]"
assay_endpoint = "IC50"
reported_measurement = "> 100 µM"


---

molecular target: UniProt P11712; assay: CYP inhibition assay, CYP2C9; type: in vitro ADME; details: human; 40 μM
assay-endpoint: inhibition at 40 µM (%)

[[record]]
compound = "N[C@@]1(c2ccccc2Cl)CCC[C@@H](O)C1=O [2R,6R-hydroxynorketamine]"
measure_unit = "%"
reported_measurement = -0.113


---

experiment: in vitro; settings: human, Caco-2, Efflux Ratio (Mean Papp B2A/Mean Papp A2B), Caco-2, without inhibitor
assay-endpoint: efflux ratio

[[record]]
compound = "N[C@@]1(c2ccccc2Cl)CCC[C@@H](O)C1=O [2R,6R-hydroxynorketamine]"
reported_measurement = "< 2"


---

test: in vitro hepatocyte stability assay, rat; assay type: in vitro ADME; conditions: cryopreserved hepatocytes
assay-endpoint: half-life (min)

[[record]]
compound = "N[C@@]1(c2ccccc2Cl)CCC[C@@H](O)C1=O [2R,6R-hydroxynorketamine]"
measure_unit = "min"
reported_measurement = 25.1


---

molecular target: UniProt P08684; assay: CYP inhibition assay, CYP3A4 (substrates midazolam and testosterone); type: in vitro ADME; conditions: human, probe testosterone; Substrate = testosterone, 40 μM
assay-endpoint: inhibition at 40 µM (%)

[[record]]
compound = "N[C@@]1(c2ccccc2Cl)CCC[C@@H](O)C1=O [2R,6R-hydroxynorketamine]"
assay_endpoint = "inhibition at 40 µM"
measure_unit = "%"
reported_measurement = 35.2


---

biological target: CYP3A4 (Homo sapiens, UniProt P08684); experiment: CYP inhibition assay, CYP3A4 (substrates midazolam and testosterone); format: in vitro ADME; conditions: human, probe midazolam; Substrate = midazolam, 4 μM
assay-endpoint: inhibition at 4 µM (%)

[[record]]
compound = "N[C@@]1(c2ccccc2Cl)CCC[C@@H](O)C1=O [2R,6R-hydroxynorketamine]"
reported_measurement = 15.7


---

molecular target: CYP2B6 (Homo sapiens, UniProt P20813); assay: CYP inhibition assay, CYP2B6; assay type: in vitro ADME; conditions: human; 4 μM
assay-endpoint: inhibition at 4 µM

[[record]]
compound = "N[C@@]1(c2ccccc2Cl)CCC[C@@H](O)C1=O [2R,6R-hydroxynorketamine]"
reported_measurement = "10.6%"


---

Target: CYP1A2 (Homo sapiens)
Sequence (P05177 1-516): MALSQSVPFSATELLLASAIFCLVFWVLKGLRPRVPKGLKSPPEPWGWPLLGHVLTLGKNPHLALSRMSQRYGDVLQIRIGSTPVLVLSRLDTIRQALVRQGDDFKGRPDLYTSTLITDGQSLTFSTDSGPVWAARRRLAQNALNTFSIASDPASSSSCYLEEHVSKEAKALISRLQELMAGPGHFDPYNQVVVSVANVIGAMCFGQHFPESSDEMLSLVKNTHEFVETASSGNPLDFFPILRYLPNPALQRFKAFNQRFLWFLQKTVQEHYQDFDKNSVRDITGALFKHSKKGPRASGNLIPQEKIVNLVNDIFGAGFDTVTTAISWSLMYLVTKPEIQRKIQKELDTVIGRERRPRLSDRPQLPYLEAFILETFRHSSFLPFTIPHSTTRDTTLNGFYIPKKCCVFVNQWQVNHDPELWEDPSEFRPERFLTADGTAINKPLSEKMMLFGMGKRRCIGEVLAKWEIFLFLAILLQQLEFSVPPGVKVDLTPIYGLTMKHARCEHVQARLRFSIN
Assay: CYP inhibition assay, CYP1A2
Format: in vitro ADME
Details: 4 μM
assay-endpoint: inhibition at 4 µM (%)

[[record]]
compound = "N[C@@]1(c2ccccc2Cl)CCC[C@@H](O)C1=O [2R,6R-hydroxynorketamine]"
measure_unit = "%"
reported_measurement = 11.7

